Recorded values, source paper PMC4038554.

Could you please report measured relative binding ratio (IC50 of the test peptide divided by IC50 of the reference peptide) for the items listed next?
System: DRB4
Assay: HLA class II peptide-binding assay (competitive ELISA)
Design: species or system human
Conditions: DRB4; competitive ELISA, immunopurified HLA; reference peptide IC50 8 nM; ratio ≤20 high affinity, 20–200 moderate affinity

Guide cases for relative binding ratio (IC50 of the test peptide divided by IC50 of the reference peptide), answers given:
PGKYTAYEGQRVVFIQ [pC4, Can f 1 peptide p73–88] ... 722
LEAKITMLTNGQCQNIT [pC3, Can f 1 peptide p48–64] ... > 1 179
PGKYTADGGKHVAYII [pTL4, Tear lipocalin peptide p74–89] ... > 1 179
HYIFYCEGELHGKPVR [pTL6, Tear lipocalin peptide p96–111] ... 121
RQIRMAKLLGRDPEQSQ [pC7, Can f 1 peptide p107–123] ... 94

Give relative binding ratio (IC50 of the test peptide divided by IC50 of the reference peptide) for each of the items listed below.
1. HYILYCEGELHGRQIR [pC6, Can f 1 peptide p95–110]
2. KPVRGVKLVGRDPKNNL [pTL7, Tear lipocalin peptide p108–124]
3. GKHVAYIIRSHVKDHY [pTL5, Tear lipocalin peptide p82–97]
4. GKWYLKAMTADQEVPE [pC1, Can f 1 peptide p15–30]
5. GTWYLKAMTVDREFPE [pTL1, Tear lipocalin peptide p15–30]

Result:
1. 62
2. > 1 179
3. > 1 179
4. 29
5. 1

###

Tested on: DRB5
Test: HLA class II peptide-binding assay (competitive ELISA)
Parameters: species or system human
Conditions: DRB5; competitive ELISA, immunopurified HLA; reference peptide IC50 7 nM; ratio ≤20 high affinity, 20–200 moderate affinity
endpoint: relative binding ratio (IC50 of the test peptide divided by IC50 of the reference peptide)

ESILIPRQSETCSPGSD [pTL9, Tear lipocalin peptide p142–158] ... > 1 443
KPVRGVKLVGRDPKNNL [pTL7, Tear lipocalin peptide p108–124] ... > 1 443

# context switch: different sequence, same relative binding ratio (IC50 of the test peptide divided by IC50 of the reference peptide)
Entry EILELAQSETCSPGGQ [pC9, Can f 1 peptide p141–156] , DRB5 data, relative binding ratio (IC50 of the test peptide divided by IC50 of the reference peptide) value: > 1 443

###

Biological target: DRB1*0101 (Homo sapiens, UniProt P01903+P01911, A100R/D57E/F55L/F60I/F76Y/I96L/L162R/M171V/P40L/Q125E/R42F/V115G/Y59C)
Assay: HLA class II peptide-binding assay (competitive ELISA)
Conditions: immunopurified HLA, reference peptide IC50 3 nM, ratio ≤20 high affinity, 20–200 moderate affinity
endpoint: relative binding ratio (IC50 of the test peptide divided by IC50 of the reference peptide)
One number for each entry.

GQRVVFIQPSPVRDHY [pC5, Can f 1 peptide p81–96] ... 1
LEAKITMLTNGQCQNIT [pC3, Can f 1 peptide p48–64] ... 4
HYIFYCEGELHGKPVR [pTL6, Tear lipocalin peptide p96–111] ... 31
GKWYLKAMTADQEVPE [pC1, Can f 1 peptide p15–30] ... 32
HYILYCEGELHGRQIR [pC6, Can f 1 peptide p95–110] ... 48

The measured relative binding ratio (IC50 of the test peptide divided by IC50 of the reference peptide) associated with RQIRMAKLLGRDPEQSQ [pC7, Can f 1 peptide p107–123] reads 66
